Would you mind telling me the reported IC50 of each entry?
# Test system: MCF-7, cancer cell line
# ASSAY OVERVIEW: MCF-7 growth inhibition (SRB or Sysmex cell counting)
# Format: cell-based
# CONDITION DESCRIPTION: concentration required to inhibit net cell growth by 50%; SRB or CC assay
Numbers only, in nM.

A selection of reference data follows.
COMPOUND: COc1cc(C(=O)c2c(-c3cnn(CC(C)C)c3)oc3c(O)c(OC)ccc23)cc(OC)c1OC [Entry 26]
IC50, nM: 14
--
COMPOUND: COc1ccc2c(C(=O)c3cc(OC)c(OC)c(OC)c3)c(-c3ccco3)oc2c1 [Entry 52]
IC50, nM: 7.9

Please turn your attention to the following entry.
I would be grateful if you could share the reported IC50 for COc1cc(C(=O)c2c(-c3cnn(CC(N)=O)c3)oc3c(F)c(OC)ccc23)cc(OC)c1OC [Entry 53] .
8.1

* * *

# Tested on: MCF-7, cancer cell line
# ASSAY OVERVIEW: MCF-7 growth inhibition (SRB or Sysmex cell counting)
# Assay type: cell-based
# CONDITION DESCRIPTION: concentration required to inhibit net cell growth by 50%; SRB or CC assay
READOUT NAME: IC50 (nM)
Numbers only, in nM.

A selection of reference data follows.
SUBSTANCE SMILES: COc1cc(C(=O)c2c(-c3cnn(Cc4ccccc4)c3)oc3c(O)c(OC)ccc23)cc(OC)c1OC
ENDPOINT UNIT: nM
OBSERVED RESULT: 3.3

SUBSTANCE SMILES: COc1cc(C(=O)c2c(-c3cnn(C)c3)oc3c([N+](=O)[O-])c(OC)ccc23)cc(OC)c1OC
ENDPOINT UNIT: nM
OBSERVED RESULT: 40

SUBSTANCE SMILES: CCOC(=O)Cn1cc(-c2oc3cc(OC)ccc3c2C(=O)c2cc(OC)c(OC)c(OC)c2)cn1
ENDPOINT UNIT: nM
OBSERVED RESULT: 15

SUBSTANCE SMILES: COc1cc(OC)cc(C(=O)c2c(-c3cnn(C)c3)oc3c(O)c(OC)ccc23)c1
ENDPOINT UNIT: nM
OBSERVED RESULT: 4.4

Please turn your attention to the following entry.
I would be grateful if you could share the reported IC50 for COc1cc(C(=O)c2c(-n3cccn3)oc3c(O)c(OC)ccc23)cc(OC)c1OC .
2.4
